Item-by-item account of pIC50
targetDesc: CCR(9) (Homo sapiens, UniProt P51686)
Construct: CCR(9)-expressing cells such as T cell line MOLT-4 cells; host or cells: MOLT-4 cells
assayProcedure: serum chemotaxis (migration) assay, MOLT-4 cells in human serum, TECK
Type: cell-based
statedConditions: read-out: A2
pIC50: −log10 of the molar value.

1) COc1ccc(-n2nc(C)cc2NS(=O)(=O)c2ccc(C(C)(C)C)cc2)c2cccnc12 > 6.30

So what's the measured pIC50 for this one? Cc1cc(NS(=O)(=O)c2ccc(C(C)(C)C)c(F)c2)n(-c2cccc3ncccc23)n1
> 6.30

So what's the measured pIC50 for this one? CC(C)(C)c1ccc(S(=O)(=O)Nc2cc(C(F)F)nn2-c2cccc3ncccc23)cc1F
5.60 to 6.30

So what's the measured pIC50 for this one? Cc1cc(NS(=O)(=O)c2ccc(C(C)(C)C)cc2)n(-c2cccc3cnccc23)n1
5.60 to 6.30

So what's the measured pIC50 for this one? CC(C)Oc1ccc(S(=O)(=O)Nc2cc(CF)nn2-c2cccc3ncccc23)cc1
5.60 to 6.30

So what's the measured pIC50 for this one? CC(C)(C)c1ccc(S(=O)(=O)Nc2cc(CF)nn2-c2cccc3ncccc23)cc1
> 6.30

So what's the measured pIC50 for this one? Cc1cc(NS(=O)(=O)c2ccc(C(C)(C)C)cc2)n(-c2ccnc3cc(F)ccc23)n1
5.60 to 6.30

So what's the measured pIC50 for this one? Cc1cc(NS(=O)(=O)c2ccc(C(C)(C)C)cc2)n(-c2cccc3nc(N)ccc23)n1
> 6.30

So what's the measured pIC50 for this one? Cc1cc(NS(=O)(=O)c2ccc(C(C)C)cc2)n(-c2cccc3cnccc23)n1
5.60 to 6.30

So what's the measured pIC50 for this one? Cc1cc(NS(=O)(=O)c2ccc(C(C)(C)C)cc2)n(-c2cccc3c(N)nccc23)n1
5.60 to 6.30

* * *

targetDesc: CCR(9) (Homo sapiens, UniProt P51686)
Construct: CCR(9)-expressing cells such as T cell line MOLT-4 cells; host or cells: MOLT-4 cells
Sequence (P51686 1-369): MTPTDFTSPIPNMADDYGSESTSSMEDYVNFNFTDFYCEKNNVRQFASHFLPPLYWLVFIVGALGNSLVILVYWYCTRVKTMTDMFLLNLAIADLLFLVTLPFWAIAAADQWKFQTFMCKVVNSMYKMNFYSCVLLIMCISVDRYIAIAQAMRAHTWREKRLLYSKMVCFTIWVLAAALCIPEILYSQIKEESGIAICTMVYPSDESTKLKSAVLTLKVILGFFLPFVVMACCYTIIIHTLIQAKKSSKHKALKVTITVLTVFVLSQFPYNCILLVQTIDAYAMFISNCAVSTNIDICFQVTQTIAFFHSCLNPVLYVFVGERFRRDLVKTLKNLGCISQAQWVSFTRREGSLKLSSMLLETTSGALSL
assayProcedure: serum chemotaxis (migration) assay, MOLT-4 cells in human serum, TECK
Type: cell-based
statedConditions: read-out: A2
pIC50: −log10 of the molar value.
reportedEndpoint: pIC50

Consider the reported pIC50 for these compounds:
1) Cc1cc(NS(=O)(=O)c2ccc(C(C)(C)C)cc2)n(-c2nccc3ncccc23)n1 5.60 to 6.30
2) Cc1cc(NS(=O)(=O)c2ccc(OC(C)C)c(F)c2)n(-c2cccc3ncccc23)n1 5.60 to 6.30
3) Cc1cc(NS(=O)(=O)c2ccc(C(C)(C)C)cc2)n(-c2cnnc3ccccc23)n1 5.60 to 6.30
4) Cc1cc(NS(=O)(=O)c2ccc(C(C)(C)C)cc2)n(-c2cnc(N)c3ccccc23)n1 5.60 to 6.30
5) Cc1cc(NS(=O)(=O)c2ccc(C(C)(C)C)c(F)c2)n(-c2cccc3nc(N)ccc23)n1 > 6.30

So what's the measured pIC50 for this one? CC(C)(C)c1ccc(S(=O)(=O)Nc2cc(C(F)F)nn2-c2cccc3ncccc23)cc1
> 6.30

So what's the measured pIC50 for this one? CC(C)Oc1ccc(S(=O)(=O)Nc2cc(C(F)F)nn2-c2cccc3ncccc23)cc1
> 6.30

So what's the measured pIC50 for this one? CC(C)(C)c1ccc(S(=O)(=O)Nc2ccnn2-c2cccc3ncccc23)cc1
< 5.60

So what's the measured pIC50 for this one? CC(C)c1ccc(S(=O)(=O)Nc2cc(C(F)(F)F)nn2-c2cccc3cnccc23)cc1
5.60 to 6.30

So what's the measured pIC50 for this one? Cc1cc(NS(=O)(=O)c2ccc(C(C)(C)C)cc2)n(-c2ccnc3ccccc23)n1
5.60 to 6.30

So what's the measured pIC50 for this one? Cc1cc(NS(=O)(=O)c2ccc(C(C)(C)C)cc2)n(-c2ccc(Cl)c3ncccc23)n1
> 6.30

So what's the measured pIC50 for this one? CC(C)(C)c1ccc(S(=O)(=O)Nc2cc(CF)nn2-c2cccc3ncccc23)cc1F
> 6.30

So what's the measured pIC50 for this one? Cc1cc(NS(=O)(=O)c2ccc(C(C)(C)C)cc2)n(-c2ncc(Cl)c3ccccc23)n1
< 5.60
